Target: human leukocyte elastase (Homo sapiens, UniProt P08246)
Sequence (P08246 30-267): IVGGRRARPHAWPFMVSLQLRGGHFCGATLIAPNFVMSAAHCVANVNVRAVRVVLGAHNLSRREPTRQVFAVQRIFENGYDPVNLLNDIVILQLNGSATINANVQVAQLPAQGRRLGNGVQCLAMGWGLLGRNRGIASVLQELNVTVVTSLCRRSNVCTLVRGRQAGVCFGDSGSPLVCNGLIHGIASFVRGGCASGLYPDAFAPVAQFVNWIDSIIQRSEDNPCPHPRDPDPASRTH
Assay: elastase inhibition using human leukocyte elastase (kon and Ki*)
Assay type: biochemical
Conditions: rate of inactivation of enzyme; value is 10^-3 × kon; read-out: Elastase 10^-3 × kon
OUTCOME_MEASURE: log10(kon) (log10 of the value in M⁻¹ s⁻¹)
Recall that a logarithmic scale is used here: each number is log10 of kon in M⁻¹ s⁻¹.

# COMPOUND, EXPERIMENTAL_RESULT
measured = [
    ("O=C1c2ccccc2S(=O)(=O)N1CSc1nnnn1-c1cccnc1 [Example 30Q]", 3.14),
    ("O=C1c2ccccc2S(=O)(=O)N1CSc1nnc2ccccn12 [Example 30N]", 2.40),
    ("CC(C)c1cccc2c1C(=O)N(CSc1nnnn1CC(=O)N(C)C)S2(=O)=O [Example 30AW]", 4.48),
    ("O=C1c2ccccc2S(=O)(=O)N1CSc1nncn1-c1ccccc1 [Example 30I]", 2.65),
    ("CC(C)c1cccc2c1C(=O)N(CCl)S2(=O)=O [Example 22E, 2-chloromethyl-4-isopropylsaccharin]", 3.67),
    ("O=C1c2ccccc2S(=O)(=O)N1CF [Example 27, 2-fluoromethylsaccharin]", 3.88),
    ("CCOc1cccc2c1C(=O)N(CCl)S2(=O)=O [Example 22H]", 4.40),
    ("CC(C)c1cccc2c1C(=O)N(CSc1nnnn1C)S2(=O)=O [Example 30AN]", 4.28),
]

Prompt: Bench note: what log10(kon) did COC(=O)C(Sc1nnnn1-c1ccccc1)N1C(=O)c2ccccc2S1(=O)=O (stereo not drawn) [Example 17] show?
Response: 3.46

====

Biological target: UniProt P00766
Experiment: α-chymotrypsin inhibition (kon and Ki*)
Format: biochemical
Settings: read-out: α-Chymotrypsin 10^-3 × kon
OUTCOME_MEASURE: kon (M⁻¹ s⁻¹)
One number for each entry, in M⁻¹ s⁻¹.

# MOLECULE, kon / M⁻¹ s⁻¹
records = [
    ("O=C1c2ccccc2S(=O)(=O)N1CS(=O)(=O)c1ncccn1", 2800),
]

I'm hoping you can list kon for every molecule here, please.
1. O=C1c2ccccc2S(=O)(=O)N1CS(=O)(=O)c1ccccc1
2. CC(=O)Nc1cccc(-n2nnnc2SCN2C(=O)c3ccccc3S2(=O)=O)c1
3. O=C1c2ccccc2S(=O)(=O)N1C[S+]([O-])c1ncccn1 (stereo not shown)

Response:
[1100, 3700, 2600]

====

Target: human leukocyte elastase (Homo sapiens, UniProt P08246)
Assay: elastase inhibition using human leukocyte elastase (kon and Ki*)
Assay type: biochemical
Settings: human leukocyte elastase; Ki* = koff/kon; read-out: Ki * values, elastase inhibition (Examples 41-57)
OUTCOME_MEASURE: pKi
One number for each entry, as −log10 of the molar value.

Prompt: Lab request: please report pKi under test system human leukocyte elastase (Homo sapiens, UniProt P08246) for CC(C)c1cccc2c1C(=O)N(CN1C(=O)CNS1(=O)=O)S2(=O)=O [Example 42D]
Response: 6.00

====

Assignment: determine reported kon for the given compounds.
Biological target: human leukocyte elastase (Homo sapiens, UniProt P08246)
Sequence (P08246 30-267): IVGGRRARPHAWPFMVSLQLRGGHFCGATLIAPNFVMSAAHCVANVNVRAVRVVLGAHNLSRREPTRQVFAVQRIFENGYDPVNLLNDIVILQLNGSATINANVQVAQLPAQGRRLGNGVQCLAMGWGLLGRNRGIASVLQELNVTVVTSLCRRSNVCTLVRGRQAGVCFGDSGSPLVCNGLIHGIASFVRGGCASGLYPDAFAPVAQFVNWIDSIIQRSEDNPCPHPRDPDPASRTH
Assay: elastase inhibition using human leukocyte elastase (kon and Ki*)
Type: biochemical
Conditions: rate of inactivation of enzyme; value is 10^-3 × kon; read-out: Elastase 10^-3 × kon
One number for each entry, in M⁻¹ s⁻¹.

Some compounds with known kon results, for comparison:
# COMPOUND, UNIT_DESCRIPTOR, kon
rows = [
    ("Cn1nnnc1SCN1C(=O)c2ccccc2S1(=O)=O", "M⁻¹ s⁻¹", 1000),
    ("Nc1cccc(-n2nnnc2SCN2C(=O)c3ccccc3S2(=O)=O)c1 [Example 30C]", "M⁻¹ s⁻¹", 2500),
    ("O=C1c2ccccc2S(=O)(=O)N1COc1ccc([N+](=O)[O-])cc1", "M⁻¹ s⁻¹", 3200),
    ("O=C1c2ccccc2S(=O)(=O)N1C[S+]([O-])c1nnnn1-c1ccccc1 (stereo not shown)", "M⁻¹ s⁻¹", 7000),
]

Hey, quick one: what's kon for each of these?
1. O=C1c2c(Cl)cccc2S(=O)(=O)N1CSc1nnnn1-c1ccccc1
2. O=C1c2c(Cl)cccc2S(=O)(=O)N1Cn1nnn(-c2ccccc2)c1=S

Response:
[20000, 44000]

====

Molecular target: human leukocyte elastase (Homo sapiens, UniProt P08246)
Assay: elastase inhibition using human leukocyte elastase (kon and Ki*)
Format: biochemical
Details: Ki* = koff/kon; read-out: Elastase Ki *
Exercise: for every item that follows, state its recorded Ki.
Answers are plain numbers, in nM.

List reported Ki for each of these molecules:
1. CC(=O)OCN1C(=O)c2c(C)cccc2S1(=O)=O [Example 1, 2-acetoxymethyl-4-methylsaccharin]
2. O=C1c2ccccc2S(=O)(=O)N1CSc1nnc(SCCN2CCOCC2)s1 [Example 33]
3. O=C(O)c1cccc(-n2nnn(CN3C(=O)c4ccccc4S3(=O)=O)c2=S)c1 [Example 30-O]
4. O=C1c2ccccc2S(=O)(=O)N1CSc1nnnn1CCN1CCOCC1 [Example 30BG]
5. CC(=O)Nc1cccc(-n2nnnc2SCN2C(=O)c3ccccc3S2(=O)=O)c1 [Example 6]

Response:
102
12
2000
50
15

====

Target: human leukocyte elastase (Homo sapiens, UniProt P08246)
Test: elastase inhibition using human leukocyte elastase (kon and Ki*)
Type: biochemical
Conditions: rate of inactivation of enzyme; value is 10^-3 × kon; read-out: Elastase 10^-3 × kon
Field: kon. Provide a value for each of the compounds that follow.
Give bare numbers, in M⁻¹ s⁻¹.

Take a look at these entries with their results.
# CPD_SMILES, UNIT_DESCRIPTOR, kon
data = [
    ("CC(=O)Nc1cccc(-n2nnnc2SCN2C(=O)c3ccccc3S2(=O)=O)c1", "M⁻¹ s⁻¹", 5500),
    ("O=C(O)CCC(=O)Nc1cccc(-n2nnnc2SCN2C(=O)c3ccccc3S2(=O)=O)c1", "M⁻¹ s⁻¹", 3600),
]

Prompt: Please give the measured kon for this compound: O=C1c2ccccc2S(=O)(=O)N1/C=C/CSc1nnnn1-c1ccccc1
Response: 43000

====

Target: human leukocyte elastase (Homo sapiens)
Assay: elastase inhibition using human leukocyte elastase (kon and Ki*)
Type: biochemical
Conditions: Ki* = koff/kon; read-out: Elastase Ki *
OUTCOME_MEASURE: Ki (nM)
Numbers only, in nM.

# MOLECULE, EXPERIMENTAL_RESULT
rows = [
    ("O=C1c2ccc([N+](=O)[O-])cc2S(=O)(=O)N1CSc1nnnn1-c1ccccc1 [Example 31C]", 300),
]

Give measured Ki for every item shown.
1. CC(C)c1cccc2c1C(=O)N(CSc1nnnn1CC(=O)N(C)C)S2(=O)=O [Example 30AW]
2. CSc1nn(CN2C(=O)c3ccccc3S2(=O)=O)c(=S)s1 [Example 30AD]
3. CCc1cccc2c1C(=O)N(CSc1nnnn1CCN1CCOCC1)S2(=O)=O [Example 30J]
4. CC(C)c1cccc2c1C(=O)N(Cn1nnn(-c3cccnc3)c1=S)S2(=O)=O [Example 30Z]
5. CCOc1ccc(OCCOCCOC)c2c1C(=O)N(CSc1nnnn1-c1ccccc1)S2(=O)=O [Example 30L]

Response:
1
11.6
10
0.5
7.6

Prompt: GET /values?readout=Ki&system=human leukocyte elastase (Homo sapiens)&item= O=C1c2ccccc2S(=O)(=O)N1CSc1nnc2ccccn12 [Example 30N]
Response: 220

====

Target: α-Chymotrypsin (Bos taurus, UniProt P00766)
Assay: α-chymotrypsin inhibition (kon and Ki*)
Assay type: biochemical
Conditions: read-out: α-Chymotrypsin 10^-3 × kon
Procedure: Measurement of the inhibition constant, Ki, of a HLE-inhibitor complex has been described for "truly reversible inhibition constants" usually concerning competitive inhibitors. [Cha, Biochem. Pharmacol., 24, 2177-2185 (1975)]. […] Thus, instead of measuring a Ki, a Ki * is calculated which is defined as the ratio of the koff /kon, the rate of reactivation of the enzyme to the rate of inactivation of the enzyme. The values of koff and kon are measured and Ki * is then calculated. […]
OUTCOME_MEASURE: log10(kon) (log10 of the value in M⁻¹ s⁻¹)
Recall that a logarithmic scale is used here: each number is log10 of kon in M⁻¹ s⁻¹.

# COMPOUND, log10(kon)
data = [
    ("CC(=O)OCN1C(=O)c2c(Cl)cccc2S1(=O)=O", 3.46),
    ("O=C1c2ccccc2S(=O)(=O)N1C[S+]([O-])c1nnnn1-c1ccccc1 (stereo not drawn)", 3.85),
    ("O=C1c2c(Cl)cccc2S(=O)(=O)N1Cn1nnn(-c2ccccc2)c1=S", 3.78),
    ("O=C1c2c(-c3ccccc3)cccc2S(=O)(=O)N1CCl", 2.32),
    ("CC(=O)OCN1C(=O)c2c(C)cccc2S1(=O)=O", 3.08),
]

Field: next compound
Prompt: Need log10(kon), item O=C1c2c(Cl)cccc2S(=O)(=O)N1CCl
Response: 3.76
